Reported IC50 is given for each of the following compounds.
Tested on: HT-29
Protocol description: Cytotoxicity against human HT-29 cells after 96 hrs by microplate reader analysis
Type: functional, cell-based
Protocol conditions: HT-29, 96 h
// units = nM; emit number, no label

// below: answered compounds
smiles_text=CCCC(=O)N[C@H]1CCc2c(Cl)c(OC)c(OC)c(OC)c2-c2ccc(OC)c(=O)cc21 endpoint_label=IC50 value_reported=8.3
smiles_text=COc1c(Cl)c2c(c(OC)c1OC)-c1ccc(OC)c(=O)cc1[C@@H](NC(=O)CO)CC2 endpoint_label=IC50 value_reported=8

Shifting focus to the compound that follows.
Q: Given `COc1ccc(C(=O)N[C@H]2CCc3c(Cl)c(OC)c(OC)c(OC)c3-c3ccc(OC)c(=O)cc32)cc1` , respond with its IC50.
A: 8

====

System: A549
Protocol description: Cytotoxicity against human A549 cells after 96 hrs by microplate reader analysis
Assay type: functional, cell-based
Protocol conditions: A549, 96 h
Endpoint label: IC50 (nM)
// units = nM; emit number, no label

Q: Given `COc1c(Cl)c2c(c(OC)c1OC)-c1ccc(OC)c(=O)cc1[C@@H](NC(=O)c1cccc(C#N)c1)CC2` , respond with its IC50.
A: 7.4

Q: Given `COc1c(Cl)c2c(c(OC)c1OC)-c1ccc(OC)c(=O)cc1[C@@H](NC(=O)CCO)CC2` , respond with its IC50.
A: 230

Q: Given `COc1c(Cl)c2c(c(OC)c1OC)-c1ccc(OC)c(=O)cc1[C@@H](NC(=O)c1ccc([N+](=O)[O-])cc1)CC2` , respond with its IC50.
A: 11.2

Q: Given `COc1c(Cl)c2c(c(OC)c1OC)-c1ccc(OC)c(=O)cc1[C@@H](NC(=O)c1cccc([N+](=O)[O-])c1)CC2` , respond with its IC50.
A: 1.7

====

Test system: HCT-116
Protocol description: Cytotoxicity against human HCT116 cells after 96 hrs by microplate reader analysis
Format: functional, cell-based
Protocol conditions: HCT-116, 96 h
Endpoint label: pIC50
Please keep in mind that pIC50 is minus log10 of the molar concentration; only the number is needed.

Q: Answer briefly: pIC50 recorded on HCT-116 for `CCCC(=O)N[C@H]1CCc2c(Cl)c(OC)c(OC)c(OC)c2-c2ccc(OC)c(=O)cc21`
A: 8.12

====

System: HCT-116
Protocol description: Cytotoxicity against human HCT116 cells after 96 hrs by microplate reader analysis
Assay type: functional, cell-based
Protocol conditions: HCT-116, 96 h
Endpoint label: pIC50
Please keep in mind that pIC50 is minus log10 of the molar concentration; only the number is needed.

// below: answered molecules
smiles_text=COc1c(Cl)c2c(c(OC)c1OC)-c1ccc(OC)c(=O)cc1[C@@H](NC(=O)c1ccc([N+](=O)[O-])cc1)CC2 value_reported=8.21
smiles_text=CCC(O)(CC)C(=O)N[C@H]1CCc2c(Cl)c(OC)c(OC)c(OC)c2-c2ccc(OC)c(=O)cc21 value_reported=7.41
smiles_text=COc1cc(OC)cc(C(=O)N[C@H]2CCc3c(Cl)c(OC)c(OC)c(OC)c3-c3ccc(OC)c(=O)cc32)c1 value_reported=8.19
smiles_text=COc1c(Cl)c2c(c(OC)c1OC)-c1ccc(OC)c(=O)cc1[C@@H](NC(=O)c1ccc(N(C)C)cc1)CC2 value_reported=6.82
smiles_text=COc1c(Cl)c2c(c(OC)c1OC)-c1ccc(OC)c(=O)cc1[C@@H](NC(=O)C(F)(F)F)CC2 value_reported=8.82

Q: Given `CCCCCCC(=O)N[C@H]1CCc2c(Cl)c(OC)c(OC)c(OC)c2-c2ccc(OC)c(=O)cc21` , respond with its pIC50.
A: 7.43

====

Tested on: HCT-116
Protocol description: Cytotoxicity against human HCT116 cells after 96 hrs by microplate reader analysis
Type: functional, cell-based
Protocol conditions: HCT-116, 96 h
Endpoint label: IC50 (nM)
// units = nM; emit number, no label

Q: Given `COc1c(Cl)c2c(c(OC)c1OC)-c1ccc(OC)c(=O)cc1[C@@H](NC(=O)c1ccc(C#N)cc1)CC2` , respond with its IC50.
A: 6.7

Q: Given `COc1c(Cl)c2c(c(OC)c1OC)-c1ccc(OC)c(=O)cc1[C@@H](NC(=O)C1CCCCC1)CC2` , respond with its IC50.
A: 7.2

Q: Given `COc1c(Cl)c2c(c(OC)c1OC)-c1ccc(OC)c(=O)cc1[C@@H](NC(=O)c1cc([N+](=O)[O-])cc([N+](=O)[O-])c1)CC2` , respond with its IC50.
A: 6.8

Q: Given `COc1c(Cl)c2c(c(OC)c1OC)-c1ccc(OC)c(=O)cc1[C@@H](NC(=O)[C@H](C)O)CC2` , respond with its IC50.
A: 7.9
